assay: Cmax in overnight fasted CD Sprague-Dawley rat at 3 mg/kg, po by HPLC/MS/MS analysis; assay type: ADME, organism-based; set-up: dose 3 mg/kg, route oral; settings: in vivo
parameter-measured: Cmax (µM)
One number for each entry, in µM.

QUERY: Fill in: Cmax of `O=C(Nc1ccc(Oc2ccc(F)cc2)cc1)[C@@H]1C[C@@H](Cc2ccc(F)cc2)CN1C(=O)Cn1ccnn1` is ___
RESULT: 3.2

====

assay: AUC (0 to infinity) in overnight fasted beagle dog at 3 mg/kg, po by HPLC/MS/MS analysis; type: ADME, organism-based, Canis lupus familiaris; set-up: time infinity, dose 3 mg/kg, route oral; details: plasma
parameter-measured: AUC(0-inf) (µM·h)
Numbers only, in µM·h.

QUERY: Endpoint output: AUC(0-inf) of `O=C(Nc1ccc(Oc2ccc(F)cc2)cc1)[C@@H]1C[C@@H](Cc2ccc(F)cc2)CN1C(=O)Cn1ccnn1` . Value?
RESULT: 108

====

experiment: Drug uptake in nu/nu homozygous mouse plasma at 100 mg/kg, po as a suspension in 10% NMP/corn oil after 24 hrs by HPLC/MS/MS analysis; type: ADME, organism-based; design: dose 100 mg/kg, route oral
parameter-measured: concentration at 24 h (µM)
Answers are plain numbers, in µM.

- O=C(Nc1ccc(Oc2ccc(F)cc2)cc1)[C@@H]1C[C@@H](Cc2ccccc2)CN1C(=O)Cn1cncn1: 8.3
- O=C(Nc1ccc(Oc2ccc(F)cc2)cc1)[C@@H]1C[C@@H](Cc2ccc(F)cc2)CN1C(=O)Cn1nccn1: 2
- O=C(Nc1ccc(Oc2ccc(F)cc2)cc1)[C@@H]1C[C@@H](c2ccccc2)CN1C(=O)Cc1cnc[nH]1: 5
- O=C(Nc1ccc(Oc2ccc(F)cc2)cc1)[C@@H]1CN(Cc2ccccc2)CCN1C(=O)Cc1cnc[nH]1: 9.2
- O=C(Nc1ccc(Oc2ccc(F)cc2)cc1)[C@@H]1C[C@@H](Cc2ccc(F)cc2)CN1C(=O)Cn1cncn1: 18

QUERY: // returns reported concentration at 24 h for input `O=C(Nc1ccc(Oc2ccc(F)cc2)cc1)[C@@H]1C[C@@H](Cc2ccc(F)cc2)CN1C(=O)Cn1ccnn1`
RESULT: 4.7

====

experiment: Metabolic stability of the compound in mouse liver microsomes assessed as compound oxidation measuring disappearance of compound at 15 uM after 30 mins by LC/MS/MS analysis; assay type: ADME, Microsome; conditions: read-out: Drug degradation
Please respond with reported metabolised at 0.5 h, 15 µM for every item in the list.
Give bare numbers, in %.

* CN(CC(=O)NC(COCc1ccccc1)C(=O)Nc1ccc(Oc2ccccc2)cc1)C(=O)c1ccccc1 (racemic) | 89
* O=C(Nc1ccc(Oc2ccc(F)cc2)cc1)[C@@H]1C[C@@H](Cc2ccc(F)cc2)CN1C(=O)Cn1cncn1 | 8

Record metabolised at 0.5 h, 15 µM for all entries; do not skip any.
1. O=C(Cc1c[nH]cn1)N[C@@H](COCc1ccccc1)C(=O)Nc1ccc(Oc2ccc(F)cc2)cc1
2. O=C(Cc1cnc[nH]1)N[C@@H](COCc1ccccc1)C(=O)Nc1ccc(Oc2ccc(Cl)cc2)cc1
3. O=C(Cc1cnc[nH]1)N[C@@H](COCc1ccccc1)C(=O)Nc1ccc(Oc2ccccc2)cc1
4. O=C(Nc1ccc(Oc2ccc(F)cc2)cc1)[C@@H]1C[C@@H](Cc2ccccc2)CN1C(=O)Cn1cncn1

RESULT:
9
9
28
13
